Experiment: Cytotoxicity assay, MTS
Type: cell-based
Conditions: human, HFF-1 fibroblasts; HFF-1, 120-hour incubation, maximum tested 64 µM
readout_label: CC50 at 120 h

{"compound": "CC(C)=CCCC(C)(O)C1CCC(C)(O)C1C (centres unmarked) [Compound 8, cyclonerodiol]", "readout_label": "CC50 at 120 h", "value": "> 64 µM"}
{"compound": "C[C@@H](O)CCc1ccc(C(=O)O)nc1 [Compound 7, (R)‐fusarinolic acid]", "readout_label": "CC50 at 120 h", "value": "> 64 µM"}

* * *

Biological target: papain (Carica papaya, UniProt P00784)
Construct: purchased
Assay: Papain inhibition, fluorometric Z-Phe-Arg-MCA assay
Format: biochemical
Settings: papain; read-out: IC50

{"molecule": "CC(C)=CCCC(C)(O)C1CCC(C)(O)C1C (stereo not shown) [Compound 8, cyclonerodiol]", "target_under_test": "papain (Carica papaya, UniProt P00784)", "IC50 (µM)": 25.9}

* * *

System: T. cruzi Tulahuen lacZ strain
Assay: Anti-T. cruzi activity, intracellular amastigotes in HFF-1 cells, beta-galactosidase/CPRG readout
Conditions: Trypanosoma cruzi, HFF-1, 120 h
readout_label: log10 of IC50 (log10 of the value in µM)

{"compound": "O=C(Cn1ccnc1[N+](=O)[O-])NCc1ccccc1 [Benznidazole, reference compound]", "target_under_test": "T. cruzi Tulahuen lacZ strain", "value": 0.35}
{"compound": "CC(C)=CCCC(C)(O)C1CCC(C)(O)C1C (stereo not drawn)", "target_under_test": "T. cruzi Tulahuen lacZ strain", "value": 1.36}
{"compound": "CSC12CC3=CC=CC(OC(C)=O)C3N1C(=O)C1(SC)CC3=CC=CC(OC(C)=O)C3N1C2=O (stereo not drawn)", "target_under_test": "T. cruzi Tulahuen lacZ strain", "value": 1.12}
{"compound": "C[C@@H](O)CCc1ccc(C(=O)O)nc1 [Compound 7, (R)‐fusarinolic acid]", "target_under_test": "T. cruzi Tulahuen lacZ strain", "value": 1.78}
{"compound": "CCCCc1ccc(C(=O)[O][Mg][O]C(=O)c2ccc(CCCC)cn2)nc1", "target_under_test": "T. cruzi Tulahuen lacZ strain", "value": 1.09}
{"compound": "CCCCc1ccc(C(=O)O)nc1", "target_under_test": "T. cruzi Tulahuen lacZ strain", "value": 1.32}

* * *

Target: papain (Carica papaya, UniProt P00784)
Construct: purchased
Sequence (P00784 134-345): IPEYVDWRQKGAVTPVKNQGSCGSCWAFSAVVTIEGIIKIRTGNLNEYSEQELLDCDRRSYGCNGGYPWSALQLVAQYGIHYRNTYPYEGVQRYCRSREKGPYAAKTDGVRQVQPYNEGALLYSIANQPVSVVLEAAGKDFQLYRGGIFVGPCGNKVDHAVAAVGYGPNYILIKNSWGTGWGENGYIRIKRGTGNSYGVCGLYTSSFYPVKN
Experiment: Papain inhibition, fluorometric Z-Phe-Arg-MCA assay
Assay type: biochemical
Conditions: papain; positive control; read-out: IC50
Experimental: Compounds 1, 2, 4, and 7–11 were tested against papain inhibitory activity. Papain served as the model cysteine protease in the protease inhibition assay. Enzyme activity was assessed via real‐time fluorometric monitoring of 7‐amino‐4‐methylcoumarin (MCA) release during substrate cleavage. Hydrolysis of the fluorogenic substrate Z‐Phe‐Arg‐MCA (ZFR‐MCA) was tracked in black 96‐well plates using a spectrofluorometer (λex/λem = 380/460 nm) (SpectraMax M3, Molecular Devices). […]

{"molecule": "CC(C)C[C@H](NC(=O)[C@H]1O[C@@H]1C(=O)O)C(=O)NCCCCN=C(N)N [E‐64, reference compound]", "target_under_test": "papain (Carica papaya, UniProt P00784)", "IC50 (nM)": 7.2}
